- assay-method-text: chemical genetic growth profiling, strain panel (AID 1159580);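 also: tested at 20 µM; growth read once vehicle control cultures reached saturation at 30 °C; 1 = growth at the plate median or of vehicle wells; lower values mean less growth of the strain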
- condition-summary: S. cerevisiae deletion strains, growth OD, locus YNL271C, strain bni1, active compounds read low
The campaign covered roughly 5,500 compounds. About 2,000 (36%) were called active. Another 18% or so got no clear call; they are omitted. The list shows a part of the results.
Entries and their measured normalized growth follow.
parameter-measured: normalized growth

[[record]]
compound = "C=CCCCCCCCCCCCC(O)CC(O)COC(C)=O (centres undefined) (tested in a mixture with another compound)"
measured_number = 0.947

[[record]]
compound = "CC(=O)OCC[C@H](C)CCC=C(C)C"
measured_number = 1.02

[[record]]
compound = "O=S1OCC2C(CO1)C1(Cl)C(Cl)=C(Cl)C2(Cl)C1(Cl)Cl (centres undefined)"
measured_number = 0.971

[[record]]
compound = "NC[C@@H]1CC[C@@H](N)[C@@H](O[C@H]2[C@H](O)[C@@H](O[C@H]3O[C@H](CO)[C@@H](O)[C@H](N)[C@H]3O)[C@H](N)C[C@@H]2N)O1"
measured_number = 1


Cited source: PubChem BioAssay AID1159580
